Source listed as PubChem BioAssay (NCI).

assay: NCI Yeast Anticancer Drug Screen. Data for the mlh1 strain (AID 171); conditions: S. cerevisiae mlh1 strain growth inhibition; at 33.0 µM; hits give high values
The panel holds about 79,000 compounds, 15% with a hit somewhere; the sample as a whole holds those more often.
Each entry gets NO if its growth inhibition stays under 40%, and YES if its growth inhibition is 40% or above.

compound	label_class
FC(F)(F)c1nc2nc(Cl)c(Cl)nc2n1CCCN1CCOCC1	NO
Clc1ccccc1C1OC1c1ccccc1Cl (stereo not drawn)	NO
c1ccc2c(c1)c1ncccc1c1nccnc21	NO
O=Cc1cccc2ccc3ccccc3c12	YES
O=C(Cc1csc2[n+]1C(=O)/C(=C/c1ccc(Cl)cc1)S2)Nc1ccccc1	YES
CC(Br)C(=O)c1ccc2cc(Br)c3ccccc3c2c1 (stereo not drawn)	NO
Oc1cccc2c(Cl)ccnc12	YES
c1ccc2c(c1)-c1nc3ccccc3cc1C2N1CCOCC1 (stereo not drawn)	NO
C=CCC1=C(C)C(OC(=O)/C=C/c2ccccc2)CC1=O (stereo not drawn)	NO
O=C(O)c1ccccc1-c1ccccc1C(=O)Nc1ccc2c(c1)Cc1ccccc1-2	YES
COc1ccc(O)c(/C=N\Nc2ccccc2)c1	NO
CNC(=O)OCc1c(COC(=O)NC)c(-c2ccc(-c3ccccc3)cc2)n(C)c1C	NO
CC(C)(Br)C(=O)/C=C/c1ccc(Cl)c(Cl)c1	NO
c1ccc2c(c1)NC(NC1Nc3ccccc3N1)N2	NO
NCCNc1ccc(NCCN)c2c1C(=O)c1c(O)ccc(O)c1C2=O	YES
COCCOC(=O)CCn1cc(F)c(=O)[nH]c1=O	YES
CSC1=NNC(SC)=NN1	YES
COP(=O)(OC)/C(=C\C1=CN(C(c2ccccc2)(c2ccccc2)c2ccccc2)CN1)NC=O	YES
Oc1c(Br)cc(Br)cc1C1CCCCC1	YES
O=C1CSC(/C=C/c2ccccc2)N1c1ccc(-c2ccc(-n3c(-c4ccccc4)nc4ccccc4c3=O)cc2)cc1 (stereo not drawn)	NO
CC(C)C1=CCC2C(=C1)CCC1C(C)(C(=O)O)CCCC21C (stereo not drawn) (tested in a mixture with another compound)	YES
COc1cc(C2c3cc4c(cc3OC(NNc3ccccc3)C2C)OCO4)cc(OC)c1OC (stereo not drawn)	NO
CCCCCCCCCCCCCCCCCCN(C)CC(COP(=O)([O-])OCC[N+](C)(C)C)OC (stereo not drawn)	YES
CCC[CH2][Ge]([CH2]CCC)([CH2]CCC)[O]C(=O)C(OC)c1ccccc1 (stereo not drawn)	YES
N#Cc1c(N)[nH]c2ccc(Sc3ccccc3)cc12	YES
CC1=NN(c2cccc(Cl)c2)C(=O)C1	NO
CCCCCCc1cc(C(=O)OC/C(C)=N/NC(N)=O)c2ccccc2n1	NO
CCN(CC)C(C)(C)C(=O)/C=C/c1ccccc1	NO
O=C(O)c1ccccc1NC(=S)c1ccccc1	NO
CC(=O)Nc1ccc(/C=C(\C#N)c2ccc(C)cc2)cc1	NO
O=C1Nc2ccccc2/C1=C/COc1ccccc1	YES
COC(=O)C1=C(C)NC(C)=C(C(=O)OCCCN2CCC(c3ccccc3)(c3ccccc3)CC2)C1c1cccc([N+](=O)[O-])c1 (stereo not drawn)	YES
CCOP(=O)(OCC)C(Cc1ccccc1)N=C(c1ccccc1)c1ccccc1 (stereo not drawn)	YES
CC(=O)SCCC[Si](C)(C)CCCSC(C)=O	NO
CCOC(=O)c1cc([N+](=O)[O-])cc([N+](=O)[O-])c1Sc1ncnc2nc[nH]c12	YES
CN(C)C[C@H]1CC[C@@H](CN(C)C)C1=O	NO
[N-]=[N+]=NC1=C(c2ccccn2)C(=O)c2cccc3cccc1c23	NO
COc1cc(C2SCC(=O)N2c2ccc(-c3ccc(-n4c(-c5ccccc5)nc5ccccc5c4=O)cc3)cc2)cc(OC)c1OC (stereo not drawn)	NO
CC(C)c1cc(C(C)C)c(O)c(C([O-])[O-])c1.CC(C)c1cc(C(C)C)c(O)c(C([O-])[O-])c1.CC(C)c1cc(C(C)C)c(O)c(C([OH2+])[OH2+])c1.CC(C)c1cc(C(C)C)c(O)c(C([OH2+])[OH2+])c1.[Cu+2].[Cu+2].[OH3+].[OH3+]	YES
N/C(=N\OC(=O)NC(Cl)=C(Cl)Cl)c1cc(C(F)(F)F)cc(C(F)(F)F)c1	YES
CC(C)/C(Cl)=N\OC(=O)Nc1cccc(Cl)c1	NO
